All values here come from the supplement of paper PMC11451515.

Tested on: SEM cells
METHOD_DESCRIPTION: cell viability relative to DMSO control; higher = less cytotoxic
MEASUREMENT_SETUP: RPMI 5 mM glucose + 10% dialyzed FBS; 48 h; 0.19 µM
cell viability values for the compounds below.
METRIC: cell viability (%)

{"columns": ["COMPOUND", "SYSTEM", "OBS_VALUE"],
 "data": [
  ["OC[C@H]1OCC(O1)[N@@]2C=CC(N)=NC2=O (stereo partly drawn)", "SEM cells", 110],
  ["COc1cc2ncnc(Nc3ccc(F)c(Cl)c3)c2cc1NC(=O)/C=C/CN1CCCCC1", "SEM cells", 87],
  ["C[C@]12CC[C@@H]3c4ccc(O)cc4C[C@@H](CCCCCCCCC[S+]([O-])CCCC(F)(F)C(F)(F)F)[C@H]3[C@@H]1CC[C@@H]2O (stereo partly drawn)", "SEM cells", 112],
  ["O=C(c1ccc(Nc2nccc(-c3cc4ccccc4s3)n2)cc1)N1CCC(N2CCCC2)CC1", "SEM cells", 114],
  ["N#Cc1c(NC(=O)c2cccc3ccccc23)sc2c1CCCC2", "SEM cells", 118],
  ["CC(C)NC[C@@H](C(=O)N1CCN(c2ncnc3c2[C@H](C)C[C@H]3O)CC1)c1ccc(Cl)cc1", "SEM cells", 48.5],
  ["O=C(Nc1c(Cl)cncc1Cl)c1ccc(OC(F)F)c(OCC2CC2)c1", "SEM cells", 94.3],
  ["CNc1nccc(-c2cccnc2Oc2cc(C(=O)Nc3cccc(C(F)(F)F)c3)ccc2C)n1", "SEM cells", 125],
  ["CC(C)=CC[C@@H](O)C/1=C/C(=O)C2=C(O)C=CC(=C2C1=O)O", "SEM cells", 104],
  ["Cc1cnc(-c2cc(N3CCN(C(=O)CC[S+](C)(=O)[O-])CC3)ncc2Cl)c(C)c1", "SEM cells", 132],
  ["O=C(Nc1ccccc1-c1cn2c(CN3CCNCC3)csc2n1)c1cnc2ccccc2n1", "SEM cells", 80.1],
  ["OC(CN1CCC(Cc2ccc(F)cc2)CC1)c1ccc(Cl)cc1 (stereo not drawn)", "SEM cells", 139],
  ["CC(C)CC(=O)N[C@H](C(=O)N[C@H](C(=O)N[C@@H](CC(C)C)[C@@H](O)CC(=O)N[C@@H](C)C(=O)N[C@@H](CC(C)C)[C@@H](O)CC(=O)O)C(C)C)C(C)C", "SEM cells", 110],
  ["CCOC(=O)C/1=C(O)/C(=O)N(CC2=CC=CC=C2)C1", "SEM cells", 111],
  ["S=C1N\\C=N/C2=C1[NH]C=N2", "SEM cells", 119],
  ["NC\\1=N\\C(=O)N(\\C=C1)[C@@H]2O[C@H](CO)[C@@H](O)[C@H]2O", "SEM cells", 138],
  ["COc1ccc(-c2ccc3c(N4CCOC[C@@H]4C)nc(N4CCOC[C@@H]4C)nc3n2)cc1CO", "SEM cells", 64.7],
  ["O=C(O[C@H]1C[C@H]2CC[C@@H](C1)[N+]21CCCC1)C(O)(c1ccccc1)c1ccccc1.[Cl-]", "SEM cells", 122]
]}

* * *

Listed next: entries and their corresponding cell viability.
Test system: SEM cells
METHOD_DESCRIPTION: cell viability relative to DMSO control; higher = less cytotoxic
MEASUREMENT_SETUP: RPMI 5 mM glucose + 10% dialyzed FBS; 48 h; 5.12 µM
METRIC: cell viability (%)

{"columns": ["COMPOUND", "SYSTEM", "METRIC", "OBS_VALUE"],
 "data": [
  ["CC(C)C[C@H](NC(=O)[C@H](CCc1ccccc1)NC(=O)CN1CCOCC1)C(=O)N[C@@H](Cc1ccccc1)C(=O)N[C@@H](CC(C)C)C(=O)[C@@]1(C)CO1", "SEM cells", "cell viability", 3.02],
  ["C\\C1=C(\\C=C(C#N)/C(=O)N1)C2=C[N]3C=CN=C3C=C2", "SEM cells", "cell viability", 86.9],
  ["O=C(Nc1c(Cl)cncc1Cl)c1ccc(OC(F)F)c(OCC2CC2)c1", "SEM cells", "cell viability", 101],
  ["Cc1cnc(-c2cc(N3CCN(C(=O)CC[S+](C)(=O)[O-])CC3)ncc2Cl)c(C)c1", "SEM cells", "cell viability", 155],
  ["CC(N)C12CC3CC(CC(C3)C1)C2 (centres undefined)", "SEM cells", "cell viability", 88.1],
  ["CN(C)C1=CC=C(C=C1)C(C2=CC=C(C=C2)N(C)C)=C/3\\C=C/C(/C=C3)=[N+](C)C", "SEM cells", "cell viability", 4.04],
  ["C\\C1=C(\\C=C(\\C#N)C(=O)N1)C2=CC=NC=C2", "SEM cells", "cell viability", 105],
  ["C/C=C(/C)C(=O)O[C@H]1C(C)=C[C@]23C(=O)[C@@H](C=C(CO)[C@@H](O)[C@]12O)[C@H]1[C@@H](C[C@H]3C)C1(C)C", "SEM cells", "cell viability", 91.5],
  ["Cc1cc2c(F)c(Oc3ncnn4cc(OC[C@@H](C)O)c(C)c34)ccc2[nH]1", "SEM cells", "cell viability", 70.3],
  ["C[C@]12CCC(=O)C=C1CC[C@@H]1[C@@H]2CC[C@@]2(C)[C@H]1CC[C@]2(C)O", "SEM cells", "cell viability", 100],
  ["C=C[C@H]1CN2CC[C@H]1C[C@H]2[C@H](O)c1ccnc2ccc(OC)cc12", "SEM cells", "cell viability", 90.9],
  ["C[S+](=O)([O-])N1CCc2c(-c3cnc(N)nc3)nc(N3CCOCC3)nc21", "SEM cells", "cell viability", 55.3],
  ["CN1\\C(=C(\\O)C2=CC=CC=C2[S+]1([O-])=O)C(=O)NC3=NC=C(C)S3", "SEM cells", "cell viability", 106],
  ["COC1=C2OC(=O)\\C=C/C2=CC3=C1OC=C3", "SEM cells", "cell viability", 115]
]}
